B1: tRNA (parent)
chain: CUCUCGGUAGCCAAGUUGGUUUAAGGCGCAAGACUUUAAUUUAUCACUACGAAAUCUUGAGAUCGGGCGUUCGACUCGCCCCCGGGAGAUUUUUUCCUCGAGCAA

Variants of: B1
Experiment: nonsense suppression (GFP-seq) (ratio to wild type); higher = more function; SUP4oc tRNA, yeast GFP reporter sort-seq
Fewer inactive variants are shown than the library holds.
Returns the class for an entry based on its nonsense suppression. Class ranges: bottom range: < 0.09; center range: ≥ 0.09 and < 0.7; top range: ≥ 0.7

>  <sequenceVariant>
U16G C79U

>  <group>
top range

$$$$
>  <sequenceVariant>
C12U C29U

>  <group>
center range

$$$$
>  <sequenceVariant>
U2A U55C

>  <group>
bottom range

$$$$
>  <sequenceVariant>
A30G A31G A60U

>  <group>
top range

$$$$
>  <sequenceVariant>
C80U G85A

>  <group>
top range

$$$$
>  <sequenceVariant>
A9U G84U

>  <group>
bottom range

$$$$
>  <sequenceVariant>
C11G A24G A74G

>  <group>
bottom range

$$$$
>  <sequenceVariant>
G59U A89G

>  <group>
bottom range

$$$$
>  <sequenceVariant>
C64G C79A

>  <group>
bottom range

$$$$
>  <sequenceVariant>
A23U G65A

>  <group>
bottom range

$$$$
>  <sequenceVariant>
C29U A60U

>  <group>
top range

$$$$
>  <sequenceVariant>
A23U G67A

>  <group>
bottom range

$$$$
>  <sequenceVariant>
C29G C34G

>  <group>
bottom range

$$$$
>  <sequenceVariant>
G19U G67U

>  <group>
bottom range

$$$$
>  <sequenceVariant>
U16A G73A

>  <group>
center range

$$$$
>  <sequenceVariant>
U21G A24U

>  <group>
bottom range

$$$$
>  <sequenceVariant>
G67A G85U

>  <group>
bottom range

$$$$
>  <sequenceVariant>
C11U G61C

>  <group>
bottom range

$$$$
>  <sequenceVariant>
G7C U21G

>  <group>
bottom range

$$$$
>  <sequenceVariant>
U22A U76A

>  <group>
bottom range

$$$$
>  <sequenceVariant>
U2A U4C U16C

>  <group>
center range

$$$$
>  <sequenceVariant>
C81G G88A

>  <group>
bottom range

$$$$
>  <sequenceVariant>
U4G G61A

>  <group>
center range

$$$$
>  <sequenceVariant>
C3A G6A U71G

>  <group>
bottom range

$$$$
>  <sequenceVariant>
U20A C56A G66A

>  <group>
bottom range

$$$$
>  <sequenceVariant>
G18U C82U G86C

>  <group>
bottom range

$$$$
>  <sequenceVariant>
U4G C5U

>  <group>
center range

$$$$
>  <sequenceVariant>
U22C G73A

>  <group>
top range

$$$$
>  <sequenceVariant>
A24U G85A

>  <group>
center range

$$$$
>  <sequenceVariant>
G28U A60C

>  <group>
center range

$$$$
>  <sequenceVariant>
A33U G73C

>  <group>
bottom range

$$$$
>  <sequenceVariant>
U17A A23C U71C

>  <group>
bottom range

$$$$
>  <sequenceVariant>
U63G U76C

>  <group>
bottom range

$$$$
>  <sequenceVariant>
C27G A74C G86A

>  <group>
bottom range

$$$$
>  <sequenceVariant>
C34G G78A C81G

>  <group>
bottom range

$$$$
>  <sequenceVariant>
G10U U55C

>  <group>
bottom range

$$$$
>  <sequenceVariant>
A60C C79U

>  <group>
center range

$$$$
>  <sequenceVariant>
A60U C79U

>  <group>
top range

$$$$
>  <sequenceVariant>
A23G U55G

>  <group>
bottom range

$$$$
>  <sequenceVariant>
A30U A54C

>  <group>
bottom range

$$$$
>  <sequenceVariant>
C1G U4G G78C

>  <group>
bottom range

$$$$
>  <sequenceVariant>
A13G C75U

>  <group>
center range

$$$$
>  <sequenceVariant>
A9G G61C

>  <group>
top range

$$$$
>  <sequenceVariant>
C5U G84A

>  <group>
top range

$$$$
>  <sequenceVariant>
U20C U22C

>  <group>
top range

$$$$
>  <sequenceVariant>
A24U U63A

>  <group>
center range

$$$$
